Record form. Attribute: t1/2. Fill in for each entry.
Tested on: Liver microsome
assay.details: Half life in human liver microsomes at 1 uM preincubated for 5 mins followed by beta-NADPH addition
Assay type: ADME
Your answer is read as min, so omit the unit and give the number.

GET /value?item= "O=C(NCCN1CCCC1)c1cccn2c(=O)c3cc4ccccc4cc3nc12" &field=t1/2 returns 33

GET /value?item= "CN1CCN(CCNC(=O)c2cccn3c(=O)c4cc5ccccc5cc4nc23)CC1" &field=t1/2 returns 43

GET /value?item= CC(CN(C)C)NC(=O)c1cccn2c(=O)c3cc4ccccc4cc3nc12 (stereo not drawn) &field=t1/2 returns 54

GET /value?item= CC(CNC(=O)c1cccn2c(=O)c3cc4ccccc4cc3nc12)N(C)C (stereo not drawn) &field=t1/2 returns 43

GET /value?item= "O=C(NCCN1CCCCC1)c1cccn2c(=O)c3cc4ccccc4cc3nc12" &field=t1/2 returns 25

GET /value?item= "COCCN(C)CCNC(=O)c1cccn2c(=O)c3cc4ccccc4cc3nc12" &field=t1/2 returns 14

GET /value?item= "CN(C)CCNC(=O)c1cccn2c(=O)c3cc4ccccc4cc3nc12" &field=t1/2 returns 57

GET /value?item= "CCN(CC)CCNC(=O)c1cccn2c(=O)c3cc4ccccc4cc3nc12" &field=t1/2 returns 21
